- TESTED_SYSTEM: ABL1 (human)
- METHOD_DESCRIPTION: Caliper, Mobility shift assay off-chip
- RECORDED_CONDITIONS: compound 1.0 µM
Answer -1 if inhibition is under 10%, and 1 if it is 10% or more.

O=C(CCc1ccc2ccc3ncc(C4CCNCC4)cc3c(=O)c2c1)NCc1ccccn1    -1

Dear colleague, could you confirm whether Cn1cc(-c2cnc3ccc4ccc(CS(=O)(=O)CCc5ccccn5)cc4c(=O)c3c2)cn1 has inhibition at or above 10%?
1

And Cn1cc(-c2cnc3ccc4ccc(CS(N)(=O)=O)cc4c(=O)c3c2)cn1 ?
1

Next record, please: CN(c1ccc2ccc3ncc(-c4cnn(C)c4)cc3c(=O)c2c1)S(=O)(=O)NCc1ccccn1
1

Also Cn1cc(-c2cnc3ccc4ccc(CS(=O)(=O)NCC5CCCCN5)cc4c(=O)c3c2)cn1 (stereo not given) ?
1
